FYI, the data here is from ChEMBL document CHEMBL5725873.

Recorded below: pIC50, system Tyrosine-protein kinase Mer (Homo sapiens).
pIC50: −log10 of the molar value.

>>> print(df.to_string())
                                smiles_code  readout_value
0  CN1CCN(Cc2ccc(-c3ccc(CO[C@H]4CCC[C@@H]4NC(=O)c4cc(-c5ccc(Cl)c(F)c5)cnc4N)cc3)cc2)CC1         > 8.00

Shift focus to the following entry.
Q: # lookup: pIC50 of C[C@@H](CNC(=O)c1cc(-c2cnn(C)c2)cnc1N)OCc1ccc(Cl)c(Cl)c1
A: < 6.00
